# ASSAY: Stability in mouse plasma
# Format: in vitro ADME
# MEASUREMENT PARAMETERS: Table S5, read-out: Mouse plasma Stability t1/2
MEASURED QUANTITY: half-life

[[record]]
smiles_repr = "CC(=O)N1CCc2c1ccc(Cl)c2Cl"
measured_quantity = "half-life"
result = "> 4.67 h"


###

# SYSTEM TESTED: Notum (core, 81–451C330S) (Homo sapiens, UniProt Q6P988, C330S)
# Construct: high-throughput biochemical assay with Notum (81–451C330S) and OPTS as a synthetic fluorescent substrate; made in house
# Sequence (Q6P988 81-451 C330S): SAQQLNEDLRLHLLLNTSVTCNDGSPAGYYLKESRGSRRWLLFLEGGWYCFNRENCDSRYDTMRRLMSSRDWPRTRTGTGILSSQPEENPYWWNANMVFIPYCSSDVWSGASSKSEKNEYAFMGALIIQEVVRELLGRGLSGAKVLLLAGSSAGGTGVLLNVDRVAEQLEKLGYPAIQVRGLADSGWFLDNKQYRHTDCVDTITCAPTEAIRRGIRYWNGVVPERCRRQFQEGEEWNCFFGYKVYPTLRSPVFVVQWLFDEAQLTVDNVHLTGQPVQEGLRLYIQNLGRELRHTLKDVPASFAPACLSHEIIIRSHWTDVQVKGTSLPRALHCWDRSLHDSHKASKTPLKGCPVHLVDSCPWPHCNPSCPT
# ASSAY: Notum-OPTS biochemical assay, Notum (81–451C330S)
# MEASUREMENT PARAMETERS: Table 2; mean ± s.d. of n = 4–12; >10 = 20–50% inhibition @ 10 μM; read-out: Notum IC50
Listing of entries alongside the reported IC50.
MEASURED QUANTITY: IC50 (nM)

[[record]]
smiles_repr = "CC(=O)N1CCc2c1ccc(Cl)c2C(F)(F)F"
system_tested = "Notum (core, 81–451C330S) (Homo sapiens, UniProt Q6P988, C330S)"
numeric_value = 1.3

[[record]]
smiles_repr = "CC(=O)N1CC2(CC2)c2cc(Cl)ccc21"
system_tested = "Notum (core, 81–451C330S) (Homo sapiens, UniProt Q6P988, C330S)"
numeric_value = 34

[[record]]
smiles_repr = "COc1ccc2c(c1)CCN2C(C)=O"
system_tested = "Notum (core, 81–451C330S) (Homo sapiens, UniProt Q6P988, C330S)"
numeric_value = 670

[[record]]
smiles_repr = "CC(=O)N1CCc2cc(C)ccc21"
system_tested = "Notum (core, 81–451C330S) (Homo sapiens, UniProt Q6P988, C330S)"
numeric_value = 220


###

# ASSAY: Stability in mouse liver microsomes
# Assay type: in vitro ADME
Under this convention, yes (1) denotes MLM Stability Cli strictly below 900 µL/min/mg protein and no (0) denotes MLM Stability Cli at or above 900 µL/min/mg protein.

[[record]]
compound = "CC(=O)N1CC2(CC2)c2cc(Cl)ccc21 [Compound 4z]"
class_name = "yes (1)"

[[record]]
compound = "CS(=O)(=O)N1CC2(CC2)c2c(Cl)cccc21 [Compound 5b]"
class_name = "yes (1)"

[[record]]
compound = "O=C1CCC2Cc3ccccc3N12 (stereo not drawn) [Compound 5f]"
class_name = "yes (1)"

[[record]]
compound = "CC(=O)N1CCc2c1ccc(Cl)c2Cl [Compound 4w, 1-(4,5-Dichloroindolin-1-yl)ethan-1-one]"
class_name = "no (0)"

[[record]]
compound = "CC(=O)n1ccc2c(Cl)c(Cl)ccc21 [Compound 5d]"
class_name = "no (0)"

